Please go through the items and note down their IC50.
Target: CGRP1 receptor (CRLR/RAMP1 complex) of human neuroblastoma SK-N-MC cells (human, UniProt Q16602 23-461; O60894 27-148)
Sequence (Q16602 23-461, chain 1 of 2): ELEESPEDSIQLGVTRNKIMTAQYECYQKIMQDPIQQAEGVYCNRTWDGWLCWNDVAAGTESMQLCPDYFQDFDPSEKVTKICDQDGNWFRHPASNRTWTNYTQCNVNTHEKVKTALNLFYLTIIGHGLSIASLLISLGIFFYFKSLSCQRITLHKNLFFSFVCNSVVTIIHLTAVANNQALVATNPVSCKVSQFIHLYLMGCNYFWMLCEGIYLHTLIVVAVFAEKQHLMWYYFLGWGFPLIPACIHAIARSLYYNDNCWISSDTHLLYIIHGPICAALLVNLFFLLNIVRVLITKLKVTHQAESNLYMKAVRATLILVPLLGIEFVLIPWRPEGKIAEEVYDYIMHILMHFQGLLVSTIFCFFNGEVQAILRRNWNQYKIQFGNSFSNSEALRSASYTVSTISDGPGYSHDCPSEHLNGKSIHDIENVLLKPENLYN
Sequence (O60894 27-148, chain 2 of 2): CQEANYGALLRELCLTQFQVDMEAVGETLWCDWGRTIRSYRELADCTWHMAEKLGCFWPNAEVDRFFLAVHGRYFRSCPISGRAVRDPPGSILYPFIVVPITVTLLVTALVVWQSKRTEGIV
Assay: cell-based or functional assay
Give bare numbers, in nM.

Consider the reported IC50 for these binders:
| binder | IC50 / nM |
| --- | --- |
| Ac-WVTHRLAGLLSRSGGVVRCNFVPTDVGPFAF-NH2 [SEQ ID NO 764] | 0.91 |
| Ac-WVTHQLAGLLSQSGGVVRK(20 kDa MeO‑PEG)NFVPTDVGPFAF-NH2 [SEQ ID NO 818] | 7.18 |
| Ac-WVTHRLAGLLSRSGGVVRC(5 kDa MeO‑PEG)NFVPTDVGPFAF-NH2 [SEQ ID NO 765] | 2.52 |

Value sought for every listed binder: IC50.
1. Ac-WVTHRLAGLLSRSGGVC(20 kDa MeO‑PEG)RNNFVPTDVGPFAF-NH2 [SEQ ID NO 821]
2. Ac-WVTHRLAGLLSASGGVVRCNFVPTDVGPFAF-NH2 [SEQ ID NO 772]

Resp:
1. 0.16
2. 2.75
